From various publications: IC50 for Beta-secretase 1 (Homo sapiens, UniProt P56817).

Q) Entry `OC(CSc1ccc2ccccc2c1)CSc1ccc2ccccc2c1` , system Beta-secretase 1 (Homo sapiens, UniProt P56817): what IC50 was measured?
A) > 30 µM

Q) Notebook: pull reported IC50 for Beta-secretase 1 (Homo sapiens, UniProt P56817), entry CC(C)C[C@H](NC(=O)[C@@H](NC(=O)[C@H](CO)NC(=O)c1nnn[nH]1)C(C)C)C(=O)NCC(O)(CCc1ccccc1)C(=O)Nc1cccc(C(=O)O)c1 (stereo partly drawn)
A) > 10 µM

Q) Requested read-out IC50, target or system Beta-secretase 1 (Homo sapiens, UniProt P56817), entry `O=c1cc(-c2ccc(Oc3c(O)cc4oc(-c5ccc(O)cc5)cc(=O)c4c3O)cc2)oc2cc(O)cc(O)c12`
A) > 10 µM

====

Record set: IC50 | Beta-secretase 1 (Homo sapiens, UniProt P56817) | literature, multiple sources.
hey, just use y if measured IC50 is less than 2 µM, otherwise n

Q) # check: IC50 < 2 µM for `CCOc1nc(NCCN2CCOCC2)nc(NNc2ccc(I)cc2C)n1`
A) n

Q) Dear reviewer, please state whether Cc1cc(C2(c3cccc(-c4cncnc4)c3)N=C(N)N(C)C2=O)c(Cl)s1 (racemic) has IC50 strictly beneath 2 µM.
A) y

Q) Is it true that IC50 reported for `C=C(c1ccccc1)c1cc(C(=O)N[C@@H](Cc2ccccc2)[C@H](O)CNC2CC2)cc(N(C)S(C)(=O)=O)c1` is less than 2 µM?
A) y

Q) Strictly below 2 µM in IC50? CC(C)Cn1cc(C2(c3cccc(-c4cccnc4F)c3)N=C(N)N(C)C2=O)cn1 (racemic)
A) y

Q) Please check: IC50 for Cc1cc(C)cc(-c2cccc(C3(c4ccccc4)N=C(N)N(C)C3=O)c2)c1 (stereo unspecified) , strictly under 2 µM or not?
A) n

Q) Below 2 µM on IC50? Entry O=C(c1ccccc1)N(CC(O)Cn1c2ccccc2c2ccccc21)c1ccccc1 (stereo unspecified)
A) n

Q) Is it true that IC50 reported for `Cc1ccc(OCC(=O)N[C@@H]2c3cc(NC(=O)COc4ccc(C#N)cc4C)ccc3C[C@H]2O)cc1` is less than 2 µM?
A) n

Q) Does the reported IC50 of `O[C@H](CSc1ccc2ccccc2c1)Cn1c2ccccc2c2ccccc21` stay below 2 µM?
A) n

Q) Below 2 µM on IC50? Entry `CO[C@@H](CO)C[C@H](O)[C@H](COc1cc(F)cc(F)c1)NC(=O)c1cc(C(=O)N[C@H](C)c2ccccc2)cc(N(C)S(C)(=O)=O)c1`
A) n

Q) Could you please tell me whether IC50 recorded for `CCCCS(=O)(=O)C[C@@H](NC(=O)C1CC1)C(=O)N[C@@H](Cc1cc(F)cc(F)c1)[C@H](O)CNCc1cccc(CC)c1` is less than 2 µM?
A) y

Q) Does the reported IC50 of the following compound sit strictly below 2 µM? C#Cc1cccc(NC2CC(Nc3cccc(-c4cn([C@H](CNCc5cccc(Br)c5)Cc5ccccc5)nn4)c3)C(O)CC2O)c1 (mixture of isomers)
A) n

Q) State whether 2 µM exceeds IC50 recorded for `CN(C)c1nc(N/N=C/c2cc(I)cc(I)c2O)nc(N2CCOCC2)n1` .
A) n

Q) Please check: IC50 for `CS(=O)(=O)Nc1cc(Nc2cc(-c3ccccc3)ncn2)ccc1-c1ccccc1` , strictly under 2 µM or not?
A) n

Q) Dear colleague, could you confirm whether IC50 of `CCc1cn2c3c(ccc(C(=O)N[C@@H](COc4cc(F)cc(F)c4)[C@@H](O)C[C@H](COCc4ccc(OC)cc4)OC)c13)N(C)S(=O)(=O)CC2` falls below 2 µM? Thanks.
A) y

Q) IC50 strictly < 2 µM for this compound? `NC(=O)c1ccc[n+](CC(=O)Nc2cccc(C(=O)Nc3ccc(Cl)cc3)c2)c1`
A) n

Q) Is IC50 strictly under 2 µM for the entry NC1=NC(c2ccccc2)(C2CCCCC2)C(=O)N1Cc1cc(F)cc(F)c1 (stereo unspecified) ?
A) y

Q) Consider the compound `CN(c1cc(Cc2ccccc2)cc(C(=O)N[C@@H](Cc2ccccc2)[C@H](O)CNC2CC2)c1)S(C)(=O)=O` . Is its IC50 strictly less than 2 µM?
A) n

Q) Confirm or reject: IC50 of `CO[C@@H](COCc1ccc(F)cc1)C[C@H](O)[C@H](COc1cc(F)cc(F)c1)NC(=O)c1cc(C(=O)N[C@H](C)c2ccccc2)cc(N(C)S(C)(=O)=O)c1` lies strictly below 2 µM
A) n

Q) Quick check: does `O=C(N[C@@H](Cc1ccccc1)[C@H](O)C(=O)Nc1cccc(-c2nn[nH]n2)c1)c1cc(=O)cc(C(=O)N2COC[C@@H]2c2ccccc2)o1` have IC50 under 2 µM?
A) y

Q) Is the reported IC50 for `CC(C)[C@H](NC(=O)C[C@H](O)[C@H](CC1CCCCC1)NC(=O)C[C@H](O)[C@H](Cc1ccccc1)NC(=O)OC(C)(C)C)C(=O)NCc1ccc(C(=O)O)cc1` strictly below 2 µM?
A) n

Q) Given `COc1cc(C(=O)N[C@@H](Cc2ccccc2)[C@H](O)CNC2CC2)cc(C(=O)N[C@H](C)c2ccccc2)c1` , is recorded IC50 strictly lower than 2 µM?
A) n

====

We begin with pIC50 values for UniProt P56817, as collected from the published literature.
Bear in mind: pIC50 is minus log10 of a mol/L concentration; give just that figure.

Q) What is its pIC50 for UniProt P56817? Entry: `O=S(=O)(c1ccc(Cl)c(Cl)c1)N(CC1CC1)C[C@@H](O)CN1CCN(C(c2ccccc2)c2ccccc2)CC1`
A) 5.33

Q) Report pIC50 for CC(=O)N[C@@H](CC(C)C)C(=O)N[C@@H](Cc1ccccc1)[C@@H](O)CC(=O)N[C@@H](CC1CCCCC1)[C@@H](O)CC(=O)N[C@H](C(=O)NCc1ccc(C(=O)O)cc1)C(C)C (stereo in doubt; 15) tested on UniProt P56817.
A) 6.17

Q) Give the reported pIC50 for `Cc1ccc(Nc2cc(-c3ccccc3)ncn2)cc1NS(C)(=O)=O` (system: UniProt P56817).
A) 4.62

Q) Lab note: need pIC50 with UniProt P56817 for entry `COC(=O)c1cc(C)nc2sc3cccc(OC)c3c12` , please look it up.
A) 6.22

Q) Return pIC50 measured with UniProt P56817 given this compound: COc1cc(O)c(CC=C(C)C)c2c1C(=O)CC(c1ccc(O)cc1)O2 (centres undefined)
A) 4.56

Q) Please provide the recorded pIC50 for O=C(c1ccc(Cl)cc1)N(CC(O)Cn1c2ccccc2c2ccccc21)c1ccccc1 (centres undefined) , tested on UniProt P56817.
A) 5.33

Q) # returns recorded pIC50 (system: UniProt P56817) for COc1cc(CC(=O)NC(CC(C)C)[C@@H](O)CC(=O)N[C@@H](C(=O)N[C@H](C)C(=O)N[C@H](CCC(=O)O)C(=O)N[C@H](Cc2ccccc2)C(=O)O)C(C)C)cc(OC)c1OC (some centres undefined)
A) 4.03

Q) // fetch UniProt P56817 pIC50 for `C[C@H]1C[C@@]2(F)CSC(N)=N[C@@]2(c2cccc(NC(=O)c3ccc(Cl)cn3)c2)CO1`
A) 6.67

Q) Requested read-out pIC50, target or system UniProt P56817, entry O=C(NCc1ccccc1)c1ccc(N2CC3CC(C2)c2cccc(=O)n2C3)c(NS(=O)(=O)c2ccc3c(c2)OCCO3)c1 (centres undefined)
A) 4.00

Q) Requested read-out pIC50, target or system UniProt P56817, entry `CCCCS(=O)(=O)C[C@@H](NC(=O)c1cnccn1)C(=O)N[C@@H](Cc1cc(F)cc(F)c1)[C@H](O)CNCc1cccc(CC)c1`
A) 8.40

Q) // fetch UniProt P56817 pIC50 for `Cc1ccc(NC(=O)Cc2nnc(SCC(=O)Nc3nc(-c4ccccc4)cs3)n2C)cc1`
A) 4.68

Q) Request - read-out pIC50 | tested on UniProt P56817 | compound `O=C(NCc1cccc(F)c1)c1c[nH]c2ccc(S(=O)(=O)Nc3cccc(C(F)(F)F)c3)cc2c1=O`
A) 5.73

Q) Hello, I am looking for reported pIC50 with UniProt P56817 for CN1C(=O)C(c2cccc(-c3cncnc3)c2)(c2cnn(CCC3CCCCC3)c2)N=C1N (racemic) . Could you help?
A) 7.70

Q) Lookup: pIC50 / UniProt P56817 / Cc1ccc(-c2cccc(C3(c4ccccc4)N=C(N)N(C)C3=O)c2)c(F)c1 (centres undefined)
A) 6.85

Q) // fetch UniProt P56817 pIC50 for COc1cccc(C2(c3ccccc3)N=C(N)N3CCCN=C32)c1 (centres undefined)
A) 4.69

Q) Provide value of pIC50 for this record tested with UniProt P56817: CCCCOc1cc(C2(c3cccc(-c4cccnc4)c3)N=C(N)N(C)C2=O)ccc1OC (centres undefined)
A) 7.30
